test: Natriuretic polypeptide receptor (hNpr1) antagonism - Counterscreen GloSensor control cell line; settings: HEK293 GloSensor cGMP, SNP-stimulated, luminescence; series mostly up to 57.6 µM; note: nearly all actives have a fitted effect of over 70% in size
The campaign covered roughly 1,400 compounds. About 980 (70%) were called active. Not shown: some 16% with an inconclusive outcome. Calls come from the whole dose curve. The set was probably picked from earlier hits. These entries were drawn from the full list.
Outcomes: active, inactive

[
  {
    "compound": "O=C(c1ccccc1)N1CCC(C(=O)N2CCC(Cc3nc(-c4ccc(F)cc4)no3)CC2)CC1",
    "class": "active"
  },
  {
    "compound": "COc1ccc(CCNC(=O)c2noc(-c3ccc(C)cc3)n2)cc1OC",
    "class": "active"
  },
  {
    "compound": "Cc1noc(C)c1-c1cnc2[nH]cc(CC(=O)N3CCOCC3)c2c1",
    "class": "active"
  },
  {
    "compound": "COc1ccc(-c2noc(CC3CCN(C(=O)Cc4ccc(OC)c(OC)c4)CC3)n2)cc1",
    "class": "active"
  },
  {
    "compound": "OC1(Cc2cc(-c3ccccc3)no2)CCN(c2ncncn2)CC1",
    "class": "active"
  },
  {
    "compound": "O=C(NCc1nnc2cc(-c3nc(C4CC4)no3)ccn12)c1ccc(F)cc1Cl",
    "class": "active"
  },
  {
    "compound": "O=C(NCC1CC1)c1nc2c(o1)CCN(Cc1cccc(F)c1F)CC2",
    "class": "active"
  },
  {
    "compound": "O=C(c1ccc(Cl)cc1)N1CCCC(n2cc(-c3nc(-c4ccccc4)no3)nn2)C1 (configuration not stated)",
    "class": "active"
  },
  {
    "compound": "Cc1nc(-c2ccncc2)ncc1C(C)Nc1ncnc(C)c1C (configuration not stated)",
    "class": "active"
  },
  {
    "compound": "O=[S+]1([O-])NCC2(CCCN(Cc3ccc(C(F)(F)F)cc3)C2)Oc2ncccc21 (configuration not stated)",
    "class": "active"
  },
  {
    "compound": "COc1cccc(NC(=O)Cn2c(N(C)Cc3ccccc3)nc(C)cc2=O)c1",
    "class": "active"
  },
  {
    "compound": "O=C(c1ccccc1)N1CCNc2cnc(Nc3cccc(C(F)(F)F)c3)nc2C1",
    "class": "active"
  },
  {
    "compound": "O=C(c1cc(F)ccc1Cl)N1CCN(c2cc(-c3ccc(F)cc3)[nH]n2)CC1",
    "class": "active"
  },
  {
    "compound": "O=C(c1ccc(F)cc1F)N1CCN(c2cc(-c3ccc(Cl)cc3)[nH]n2)CC1",
    "class": "active"
  },
  {
    "compound": "COc1ccc(C(CC(=O)N(C)Cc2cc(C3CC3)n[nH]2)c2ccccc2)cc1 (configuration not stated)",
    "class": "inactive"
  },
  {
    "compound": "CC1=NS(=O)(=O)N(C)C=C1C(=O)OCc1nc(-c2ccc(C)cc2)no1",
    "class": "active"
  },
  {
    "compound": "Cc1cc(N2CCCC(Cn3cc(Cc4ccccc4)nn3)C2)nc(N)n1 (configuration not stated)",
    "class": "active"
  },
  {
    "compound": "COc1ccc(C(=O)N2CCC(n3cc(-c4nc(C(C)C)no4)nn3)CC2)cc1F",
    "class": "inactive"
  },
  {
    "compound": "Cc1noc(C)c1-c1cc(-c2ccccc2Oc2ccccc2)cn2cncc12",
    "class": "inactive"
  },
  {
    "compound": "COc1ccc(CC(=O)N2CCC(Cc3nc(-c4ccccc4)no3)CC2)cc1OC",
    "class": "active"
  },
  {
    "compound": "CN(Cc1csc(-c2ccccc2)n1)c1cc(C2CC(O)C2)nc(N)n1 (configuration not stated)",
    "class": "active"
  },
  {
    "compound": "COc1cccc(C2C(C(=O)Nc3ccccc3)=C(C)N=C3SC=C(CC(=O)NCC(C)C)N32)c1 (configuration not stated)",
    "class": "inactive"
  },
  {
    "compound": "CC1(CCCCc2ccccc2)COc2ccc(C(=O)N3CC[S+](=O)([O-])CC3)cc2N1 (configuration not stated)",
    "class": "inactive"
  },
  {
    "compound": "Cc1ccc(C(=O)N2CCN(c3cc(-c4ccc(Cl)cc4)[nH]n3)CC2)c(C)c1",
    "class": "active"
  },
  {
    "compound": "COc1ccc(-c2noc(CC3CCN(C(=O)CC4CCCCC4)CC3)n2)cc1",
    "class": "active"
  },
  {
    "compound": "COc1cccc(-c2noc(CC3CCN(C(=O)c4ccc(F)cc4)CC3)n2)c1",
    "class": "active"
  },
  {
    "compound": "O=C(Cc1c[nH]c2ncc(-c3ccccc3F)cc12)N1CCOCC1",
    "class": "active"
  },
  {
    "compound": "C1CCC(COCCc2noc(C3CNC3)n2)C1",
    "class": "active"
  },
  {
    "compound": "CN1CCN(C(=O)C(C)(C)Oc2nn(Cc3cccc(Cl)c3)c3ccccc23)CC1",
    "class": "inactive"
  },
  {
    "compound": "COc1ccc(OCC2(C)COc3ccc(C(=O)Nc4cccnc4)cc3N2)cc1 (configuration not stated)",
    "class": "active"
  },
  {
    "compound": "N#Cc1cccc(CN2CCC(C3=NC(O)c4cc(F)ccc4N3)CC2)c1 (configuration not stated)",
    "class": "active"
  },
  {
    "compound": "COc1cccc(CNC(=O)Cn2c(N(C)Cc3ccccc3)nc(C)cc2=O)c1OC",
    "class": "active"
  },
  {
    "compound": "Cc1ccc(OCc2nc(C3CCN(C(=O)CCc4nc5ccc(Cl)cc5[nH]4)CC3)no2)cc1",
    "class": "active"
  },
  {
    "compound": "CN(C)CCNC(=O)C(C)(C)Oc1nn(Cc2cccc(Cl)c2)c2ccccc12",
    "class": "inactive"
  },
  {
    "compound": "CC1(C(=O)NCc2ccc3c(c2)OCO3)CCc2cnc(NCc3ccccc3)nc21 (configuration not stated)",
    "class": "active"
  },
  {
    "compound": "COc1cccc(C2Cn3nnc(-c4nc(-c5ccccc5)no4)c3CO2)c1 (configuration not stated)",
    "class": "inactive"
  },
  {
    "compound": "Fc1ccc(CNC[C@H]2Cn3c(-c4ccc5c(c4)OCCO5)cnc3CO2)cc1",
    "class": "inactive"
  }
]
